# assay_name: in vitro
# condition_details: African green monkey
recorded_endpoint: CC50

Exam item: Give the measured CC50 of C=C(C)[C@@H]1CC[C@]2(C(=O)O)CC[C@]3(C)[C@H](CC[C@@H]4[C@@]5(C)CC[C@H](O)C(C)(C)[C@@H]5CC[C@]43C)[C@@H]12 [betulinic acid (8), 3β-hydroxy-20(29)-lupaene-28-oic acid] .
Marked response: > 500 µM

====

# assay_name: in vitro
# condition_details: African green monkey
recorded_endpoint: CC50 at 72 h

Exam item: Give the measured CC50 at 72 h of O=C(C1CCCCC1)N1CC(=O)N2CCc3ccccc3C2C1 (stereo not shown) .
Marked response: > 500 µM
